All figures here come from patent US7659244B2.

system: SKMEL-2; details: 96 h
Label key: Met means IC50 under 200 nM; Not met means IC50 of 200 nM or more.

1. CC[C@H](C)[C@H](NC(=O)O[C@@H]1CC[C@@H](C[C@@H](C)[C@@H]2CC(=O)[C@H](C)/C=C(\C)[C@@H](O)[C@@H](OC)C(=O)[C@H](C)C[C@H](C)/C=C/C=C/C=C(\C)[C@@H](OC)C[C@@H]3CC[C@@H](C)[C@@](O)(O3)C(=O)C(=O)N3CCCC[C@H]3C(=O)O2)C[C@H]1OC)C(=O)N[C@@H](CO)Cc1ccccc1    Met

*Q* Lab log: compare recorded IC50 with 200 nM; is it strictly lower for `CC[C@H](C)[C@H](NC(=O)[C@H](CC(C)C)NC(=O)[C@H](C)NC(=O)[C@@H](Cc1cn(C(c2ccccc2)(c2ccccc2)c2ccccc2)cn1)NC(=O)O[C@@H]1CC[C@@H](C[C@@H](C)[C@@H]2CC(=O)[C@H](C)/C=C(\C)[C@@H](O)[C@@H](OC)C(=O)[C@H](C)C[C@H](C)/C=C/C=C/C=C(\C)[C@@H](OC)C[C@@H]3CC[C@@H](C)[C@@](O)(O3)C(=O)C(=O)N3CCCC[C@H]3C(=O)O2)C[C@H]1OC)C(=O)N[C@@H](CO)Cc1ccccc1` ?
*A* Not met

*Q* Lab log: compare recorded IC50 with 200 nM; is it strictly lower for `CC[C@H](C)[C@H](NC(=O)[C@H](CC(C)C)NC(=O)O[C@@H]1CC[C@@H](C[C@@H](C)[C@@H]2CC(=O)[C@H](C)/C=C(\C)[C@@H](O)[C@@H](OC)C(=O)[C@H](C)C[C@H](C)/C=C/C=C/C=C(\C)[C@@H](OC)C[C@@H]3CC[C@@H](C)[C@@](O)(O3)C(=O)C(=O)N3CCCC[C@H]3C(=O)O2)C[C@H]1OC)C(=O)N[C@@H](CO)Cc1ccccc1` ?
*A* Met

*Q* Lab log: compare recorded IC50 with 200 nM; is it strictly lower for `CC[C@H](C)[C@H](NC(=O)[C@H](CC(C)C)NC(=O)[C@H](C)NC(=O)O[C@@H]1CC[C@@H](C[C@@H](C)[C@@H]2CC(=O)[C@H](C)/C=C(\C)[C@@H](O)[C@@H](OC)C(=O)[C@H](C)C[C@H](C)/C=C/C=C/C=C(\C)[C@@H](OC)C[C@@H]3CC[C@@H](C)[C@@](O)(O3)C(=O)C(=O)N3CCCC[C@H]3C(=O)O2)C[C@H]1OC)C(=O)N[C@@H](CO)Cc1ccccc1` ?
*A* Met

*Q* Lab log: compare recorded IC50 with 200 nM; is it strictly lower for `CC[C@H](C)[C@H](NC(=O)O[C@@H]1CC[C@@H](C[C@@H](C)[C@@H]2CC(=O)[C@H](C)/C=C(\C)[C@@H](O)[C@@H](OC)C(=O)[C@H](C)C[C@H](C)/C=C/C=C/C=C(\C)[C@@H](OC)C[C@@H]3CC[C@@H](C)[C@@](O)(O3)C(=O)C(=O)N3CCCC[C@H]3C(=O)O2)C[C@H]1OC)C(=O)N[C@H](CO)Cc1ccccc1` ?
*A* Not met

---

tested on: SK-N-SH; conditions: 96 h
Can you tell me IC50 for the items I'm about to list?

Use the examples below as a reference point.
1. CC[C@H](C)[C@H](NC(=O)O[C@@H]1CC[C@@H](C[C@@H](C)[C@@H]2CC(=O)[C@H](C)/C=C(\C)[C@@H](O)[C@@H](OC)C(=O)[C@H](C)C[C@H](C)/C=C/C=C/C=C(\C)[C@@H](OC)C[C@@H]3CC[C@@H](C)[C@@](O)(O3)C(=O)C(=O)N3CCCC[C@H]3C(=O)O2)C[C@H]1OC)C(=O)N[C@@H](CO)Cc1ccccc1 [Compound 7a]    86.9 nM
2. CC[C@H](C)[C@H](NC(=O)[C@H](CC(C)C)NC(=O)[C@H](C)NC(=O)O[C@@H]1CC[C@@H](C[C@@H](C)[C@@H]2CC(=O)[C@H](C)/C=C(\C)[C@@H](O)[C@@H](OC)C(=O)[C@H](C)C[C@H](C)/C=C/C=C/C=C(\C)[C@@H](OC)C[C@@H]3CC[C@@H](C)[C@@](O)(O3)C(=O)C(=O)N3CCCC[C@H]3C(=O)O2)C[C@H]1OC)C(=O)N[C@@H](CO)Cc1ccccc1 [Compound 7e]    90 nM
3. CC[C@H](C)[C@H](NC(=O)[C@H](CC(C)C)NC(=O)[C@H](C)NC(=O)[C@H](Cc1cn(C(c2ccccc2)(c2ccccc2)c2ccccc2)cn1)NC(=O)O[C@@H]1CC[C@@H](C[C@@H](C)[C@@H]2CC(=O)[C@H](C)/C=C(\C)[C@@H](O)[C@@H](OC)C(=O)[C@H](C)C[C@H](C)/C=C/C=C/C=C(\C)[C@@H](OC)C[C@@H]3CC[C@@H](C)[C@@](O)(O3)C(=O)C(=O)N3CCCC[C@H]3C(=O)O2)C[C@H]1OC)C(=O)N[C@@H](CO)Cc1ccccc1 [Compound 7h]    223 nM

Please go through the list and note IC50 for each molecule.
1. CC[C@H](C)[C@H](NC(=O)[C@@H](CC(C)C)NC(=O)O[C@@H]1CC[C@@H](C[C@@H](C)[C@@H]2CC(=O)[C@H](C)/C=C(\C)[C@@H](O)[C@@H](OC)C(=O)[C@H](C)C[C@H](C)/C=C/C=C/C=C(\C)[C@@H](OC)C[C@@H]3CC[C@@H](C)[C@@](O)(O3)C(=O)C(=O)N3CCCC[C@H]3C(=O)O2)C[C@H]1OC)C(=O)N[C@H](CO)Cc1ccccc1 [Compound 7d]
2. CC[C@H](C)[C@H](NC(=O)O[C@@H]1CC[C@@H](C[C@@H](C)[C@@H]2CC(=O)[C@H](C)/C=C(\C)[C@@H](O)[C@@H](OC)C(=O)[C@H](C)C[C@H](C)/C=C/C=C/C=C(\C)[C@@H](OC)C[C@@H]3CC[C@@H](C)[C@@](O)(O3)C(=O)C(=O)N3CCCC[C@H]3C(=O)O2)C[C@H]1OC)C(=O)N[C@H](CO)Cc1ccccc1 [Compound 7b]
3. CC[C@H](C)[C@H](NC(=O)[C@H](CC(C)C)NC(=O)O[C@@H]1CC[C@@H](C[C@@H](C)[C@@H]2CC(=O)[C@H](C)/C=C(\C)[C@@H](O)[C@@H](OC)C(=O)[C@H](C)C[C@H](C)/C=C/C=C/C=C(\C)[C@@H](OC)C[C@@H]3CC[C@@H](C)[C@@](O)(O3)C(=O)C(=O)N3CCCC[C@H]3C(=O)O2)C[C@H]1OC)C(=O)N[C@@H](CO)Cc1ccccc1 [Compound 7c]

*A*
1: 137 nM; 2: 144 nM; 3: 111 nM
